Readings of inhibition for the listed compounds
target: Casein kinase II subunit alpha (Homo sapiens); conditions: at 0.1 µM
Description: GSK_PKIS: CK2 mean inhibition at 0.1 uM [Nanosyn]
Express your answer in %, writing the number without its unit.

Some compounds with known inhibition results, for comparison:
> print(dat)
                              sample.smiles  experimental.readout  result.unit  reported
1  Cc1ccc(C(=O)NC(C)C)cc1-c1ccc(C(=O)NCC2CC2)cc1            inhibition            %      7.28
2        CNC(=O)c1cncc(/C=C/c2c(C)cccc2C)c1            inhibition            %      1.93
3  NS(=O)(=O)c1ccc(Nc2cc(-c3ccc(O)c(F)c3)n[nH]2)cc1            inhibition            %      5.31
4       Fc1ccc(-c2nc3n(c2-c2ccncc2)CCS3)cc1            inhibition            %      0.53

[Q] Return inhibition measured with Casein kinase II subunit alpha (Homo sapiens) given this compound: C[C@@H](Oc1cc(-n2cnc3ccc(OCC4CCN(C)CC4)cc32)sc1C(N)=O)c1ccccc1Cl
[A] 6.48

Numbers sourced from ChEMBL document CHEMBL1961873.
